# Tested on: DOHH2 cells
# measurement protocol: Cell proliferation assay (MTS), DOHH2 cells
# Type: cell-based
# particulars: Homo sapiens, DOHH-2, 120 h, DOHH2 (DSMZ ACC 47) cell proliferation, 5000 cells/well, 120 h, MTS; mechanism-based readout of Bcl-2 inhibition; read-out: DOHH2 IC50
Catalogue of compounds with associated pIC50
Lab note: report pIC50 as minus log10 of the concentration in molar units, number only.

Use these answered entries as a reference point.
compound	pIC50
CC(C)OC(=O)N=S1(=O)CCN(CC[C@H](C)Nc2ccc(S(=O)(=O)NC(=O)c3ccc(N4CCN(CC5=C(c6ccc(Cl)cc6)CC(C)(C)CC5)CC4)cc3Oc3cnc4[nH]ccc4c3)cc2S(=O)(=O)C(F)(F)F)CC1 [Example 93]	6.27
C[C@@H](CCN1CCS(=O)(=NC#N)CC1)Nc1ccc(S(=O)(=O)NC(=O)c2ccc(N3CCN(CC4=C(c5ccc(Cl)cc5)CC(C)(C)CC4)CC3)cc2Oc2cnc3[nH]ccc3c2)cc1[N+](=O)[O-] [Example 95]	7.15
C[C@@H](CCN1CCC(N=S(C)(C)=O)CC1)Nc1ccc(S(=O)(=O)NC(=O)c2ccc(N3CCN(CC4=C(c5ccc(Cl)cc5)CC(C)(C)CC4)CC3)cc2Oc2cnc3[nH]ccc3c2)cc1[N+](=O)[O-] [Example 96]	7.59
CN=S1(=O)CCN(CC[C@H](C)Nc2ccc(S(=O)(=O)NC(=O)c3ccc(N4CCN(CC5=C(c6ccc(Cl)cc6)CC(C)(C)CC5)CC4)cc3Oc3cnc4[nH]ccc4c3)cc2[N+](=O)[O-])CC1 [Example 94]	7.82

Attention now turns to another entry.
Request: Lookup: pIC50 / DOHH2 cells / CCN=S1(=O)CCC(CNc2ccc(S(=O)(=O)NC(=O)c3ccc(N4CCN(CC5=C(c6ccc(Cl)cc6)CC(C)(C)CC5)CC4)cc3Oc3cnc4[nH]ccc4c3)cc2[N+](=O)[O-])CC1 (centres unmarked) [Example 30]
Result: 6.88

###

# Test system: DOHH2 cells
# measurement protocol: Cell proliferation assay (MTS), DOHH2 cells
# Format: cell-based
# particulars: Homo sapiens, DOHH-2, 120 h, DOHH2 (DSMZ ACC 47) cell proliferation, 5000 cells/well, 120 h, MTS; mechanism-based readout of Bcl-2 inhibition; read-out: DOHH2 IC50
Catalogue of compounds with associated log10 of IC50
Short version: log10 scale, IC50, nM.

Use these answered entries as a reference point.
compound	log10 of IC50
CC1(C)CCC(CN2CCN(c3ccc(C(=O)NS(=O)(=O)c4ccc(NCC5CCC(N=S6(=O)CCCC6)CC5)c([N+](=O)[O-])c4)c(Oc4cnc5[nH]ccc5c4)c3)CC2)=C(c2ccc(Cl)cc2)C1 (centres unmarked)	1.04
CC(=O)N=S1(=O)CCN(CC[C@H](C)Nc2ccc(S(=O)(=O)NC(=O)c3ccc(N4CCN(CC5=C(c6ccc(Cl)cc6)CC(C)(C)CC5)CC4)cc3Oc3cnc4[nH]ccc4c3)cc2S(=O)(=O)C(F)(F)F)CC1	2.05
CC(C)OC(=O)N=S1(=O)CCN(C[C@H](C)Nc2ccc(S(=O)(=O)NC(=O)c3ccc(N4CCN(CC5=C(c6ccc(Cl)cc6)CC(C)(C)CC5)CC4)cc3Oc3cnc4[nH]ccc4c3)cc2[N+](=O)[O-])CC1	2.42
C[C@@H](CN1CCS(=O)(=NC#N)CC1)Nc1ccc(S(=O)(=O)NC(=O)c2ccc(N3CCN(CC4=C(c5ccc(Cl)cc5)CC(C)(C)CC4)CC3)cc2Oc2cnc3[nH]ccc3c2)cc1[N+](=O)[O-]	2.18

Request: // log10 of IC50 lookup, key: CC1(C)CCC(CN2CCN(c3ccc(C(=O)NS(=O)(=O)c4ccc(NCC5CC(N=S(C)(C)=O)C5)c([N+](=O)[O-])c4)c(Oc4cnc5[nH]ccc5c4)c3)CC2)=C(c2ccc(Cl)cc2)C1 (centres unmarked)
Result: 1.91

Request: // log10 of IC50 lookup, key: CC(C)C(=O)N=S1(=O)CCN(CCNc2ccc(S(=O)(=O)NC(=O)c3ccc(N4CCN(CC5=C(c6ccc(Cl)cc6)CC(C)(C)CC5)CC4)cc3Oc3cnc4[nH]ccc4c3)cc2[N+](=O)[O-])CC1
Result: 2.34

Request: // log10 of IC50 lookup, key: CCS(=O)(CC)=NC1CC(CNc2ccc(S(=O)(=O)NC(=O)c3ccc(N4CCN(CC5=C(c6ccc(Cl)cc6)CC(C)(C)CC5)CC4)cc3Oc3cnc4[nH]ccc4c3)cc2[N+](=O)[O-])C1 (centres unmarked)
Result: 1.69

###

# Tested on: DOHH2 cells
# measurement protocol: Cell proliferation assay (MTS), DOHH2 cells
# Format: cell-based
# particulars: Homo sapiens, DOHH-2, 120 h, DOHH2 (DSMZ ACC 47) cell proliferation, 5000 cells/well, 120 h, MTS; mechanism-based readout of Bcl-2 inhibition; read-out: DOHH2 IC50
reported endpoint: IC50 (nM)
The figure you give is taken to be in nM; do not add the unit.

compound	IC50 [nM]
CCN=S1(=O)CCN(C[C@H](C)Nc2ccc(S(=O)(=O)NC(=O)c3ccc(N4CCN(CC5=C(c6ccc(Cl)cc6)CC(C)(C)CC5)CC4)cc3Oc3cnc4[nH]ccc4c3)cc2[N+](=O)[O-])CC1	108

Request: // IC50 lookup, key: COC(=O)N=S1(=O)CCN(C[C@H](C)Nc2ccc(S(=O)(=O)NC(=O)c3ccc(N4CCN(CC5=C(c6ccc(Cl)cc6)CC(C)(C)CC5)CC4)cc3Oc3cnc4[nH]ccc4c3)cc2[N+](=O)[O-])CC1
Result: 20

Request: // IC50 lookup, key: CC1(C)CCC(CN2CCN(c3ccc(C(=O)NS(=O)(=O)c4ccc(NCC5(F)CCC(N=S(C)(C)=O)CC5)c([N+](=O)[O-])c4)c(Oc4cnc5[nH]ccc5c4)c3)CC2)=C(c2ccc(Cl)cc2)C1 (centres unmarked)
Result: 16

Request: // IC50 lookup, key: CCOC(=O)N=S1(=O)CCN(CC[C@H](C)Nc2ccc(S(=O)(=O)NC(=O)c3ccc(N4CCN(CC5=C(c6ccc(Cl)cc6)CC(C)(C)CC5)CC4)cc3Oc3cnc4[nH]ccc4c3)cc2[N+](=O)[O-])CC1
Result: 30

Request: // IC50 lookup, key: CC1(C)CCC(CN2CCN(c3ccc(C(=O)NS(=O)(=O)c4ccc(NCC5CCC(N=S6(=O)CCCC6)CC5)c(S(=O)(=O)C(F)(F)F)c4)c(Oc4cnc5[nH]ccc5c4)c3)CC2)=C(c2ccc(Cl)cc2)C1 (centres unmarked)
Result: 320

###

# System: DOHH2 cells
# measurement protocol: Cell proliferation assay (MTS), DOHH2 cells
# Assay type: cell-based
# particulars: Homo sapiens, DOHH-2, 120 h, DOHH2 (DSMZ ACC 47) cell proliferation, 5000 cells/well, 120 h, MTS; mechanism-based readout of Bcl-2 inhibition; read-out: DOHH2 IC50
reported endpoint: IC50

compound	recorded value
CC(=O)N=S1(=O)CCN(CCNc2ccc(S(=O)(=O)NC(=O)c3ccc(N4CCN(CC5=C(c6ccc(Cl)cc6)CC(C)(C)CC5)CC4)cc3Oc3cnc4[nH]ccc4c3)cc2[N+](=O)[O-])CC1	228 nM
C[C@@H](CCN1CCS(=O)(=NC2CC2)CC1)Nc1ccc(S(=O)(=O)NC(=O)c2ccc(N3CCN(CC4=C(c5ccc(Cl)cc5)CC(C)(C)CC4)CC3)cc2Oc2cnc3[nH]ccc3c2)cc1[N+](=O)[O-]	11 nM

Request: Lookup: IC50 / DOHH2 cells / CCOC(=O)N=S1(=O)CCN(C[C@H](C)Nc2ccc(S(=O)(=O)NC(=O)c3ccc(N4CCN(CC5=C(c6ccc(Cl)cc6)CC(C)(C)CC5)CC4)cc3Oc3cnc4[nH]ccc4c3)cc2S(=O)(=O)C(F)(F)F)CC1
Result: 247 nM

Request: Lookup: IC50 / DOHH2 cells / CCC(=O)N=S1(=O)CCN(C[C@H](C)Nc2ccc(S(=O)(=O)NC(=O)c3ccc(N4CCN(CC5=C(c6ccc(Cl)cc6)CC(C)(C)CC5)CC4)cc3Oc3cnc4[nH]ccc4c3)cc2[N+](=O)[O-])CC1
Result: 31 nM

Request: Lookup: IC50 / DOHH2 cells / CC1(C)CCC(CN2CCN(c3ccc(C(=O)NS(=O)(=O)c4ccc(NCC5CCS(=O)(=NC6CC6)CC5)c(S(=O)(=O)C(F)(F)F)c4)c(Oc4cnc5[nH]ccc5c4)c3)CC2)=C(c2ccc(Cl)cc2)C1 (stereo not shown)
Result: 99 nM

Request: Lookup: IC50 / DOHH2 cells / CC1(C)CCC(CN2CCN(c3ccc(C(=O)NS(=O)(=O)c4ccc(NCC5CCC(N=S(C)(C)=O)CO5)c([N+](=O)[O-])c4)c(Oc4cnc5[nH]ccc5c4)c3)CC2)=C(c2ccc(Cl)cc2)C1 (stereo not shown)
Result: 30 nM

Request: Lookup: IC50 / DOHH2 cells / CC1(C)CCC(CN2CCN(c3ccc(C(=O)NS(=O)(=O)c4ccc(NC(CF)CN5CCP(C)(=O)CC5)c([N+](=O)[O-])c4)c(Oc4cnc5[nH]ccc5c4)c3)CC2)=C(c2ccc(Cl)cc2)C1 (stereo not shown)
Result: 388 nM
